tested-system: ovine COX-2 (Ovis aries, UniProt P79208)
Construct: purchased
Sequence (P79208 17-603): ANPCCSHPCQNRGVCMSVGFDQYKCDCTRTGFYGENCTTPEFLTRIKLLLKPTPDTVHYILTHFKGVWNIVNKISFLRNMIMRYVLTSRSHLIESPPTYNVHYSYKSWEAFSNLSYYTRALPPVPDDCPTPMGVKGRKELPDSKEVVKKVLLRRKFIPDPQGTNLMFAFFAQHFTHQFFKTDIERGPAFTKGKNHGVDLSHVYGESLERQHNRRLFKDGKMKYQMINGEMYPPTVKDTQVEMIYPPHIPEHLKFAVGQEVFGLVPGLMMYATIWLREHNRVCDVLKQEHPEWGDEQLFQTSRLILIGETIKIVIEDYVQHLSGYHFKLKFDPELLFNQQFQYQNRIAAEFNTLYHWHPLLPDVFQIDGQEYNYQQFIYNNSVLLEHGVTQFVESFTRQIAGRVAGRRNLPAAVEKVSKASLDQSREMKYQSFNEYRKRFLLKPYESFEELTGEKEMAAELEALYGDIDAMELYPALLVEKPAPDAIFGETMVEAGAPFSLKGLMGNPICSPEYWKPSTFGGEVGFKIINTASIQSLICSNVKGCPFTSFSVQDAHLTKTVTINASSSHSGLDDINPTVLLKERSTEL
test-name: In vitro COX-2 inhibition, colorimetric ovine COX-1/COX-2 inhibitor screening assay kit
Assay type: biochemical
setup-conditions: means of three determinations, read at 590 nm; read-out: IC 50 (µM) COX-2
test-readout: IC50 (µM)
API: value field is a number in µM; no unit string.

query: Please supply the value of reported IC50 for the item NNc1nc(-c2cccnc2)cc(-c2cccs2)n1 [Compound 5]
result: 0.87

query: Please supply the value of reported IC50 for the item O=C(/C=C/c1cccs1)c1cccnc1 [Compound 3]
result: 0.39

query: Please supply the value of reported IC50 for the item S=c1nc(-c2cccnc2)cc(-c2cccs2)[nH]1 [Compound 4]
result: 0.44

query: Please supply the value of reported IC50 for the item N#Cc1c(-c2cccs2)cc(-c2cccnc2)oc1=O [Compound 6]
result: 0.84

====

Test system: carrageenan induced rat paw edema
test-name: Carrageenan induced rat paw edema
Format: in vivo
setup-conditions: 5 mg/kg.b.wt oral; 2 h after carrageenan; mean ± SD
Marks after values point to notes of the source that are not given here.
Consider the following molecules; for each one, report its Inhibition percent of rat paw edema.

query: Please supply the value of reported Inhibition percent of rat paw edema for the item O=C(/C=C/c1cccs1)c1cccnc1 [Compound 3]
result: 22.79 ± 1.07^d %

query: Please supply the value of reported Inhibition percent of rat paw edema for the item N#Cc1c(-c2cccs2)cc(-c2cccnc2)oc1=O [Compound 6]
result: 12.28 ± 1.38^h %

query: Please supply the value of reported Inhibition percent of rat paw edema for the item NNc1nc(-c2cccnc2)cc(-c2cccs2)n1 [Compound 5]
result: 14.61 ± 1.81^g %

query: Please supply the value of reported Inhibition percent of rat paw edema for the item S=c1nc(-c2cccnc2)cc(-c2cccs2)[nH]1 [Compound 4]
result: 20.07 ± 1.43^e %

====

tested-system: ovine COX-1 (Ovis aries, UniProt P05979)
Construct: purchased
Sequence (P05979 25-600): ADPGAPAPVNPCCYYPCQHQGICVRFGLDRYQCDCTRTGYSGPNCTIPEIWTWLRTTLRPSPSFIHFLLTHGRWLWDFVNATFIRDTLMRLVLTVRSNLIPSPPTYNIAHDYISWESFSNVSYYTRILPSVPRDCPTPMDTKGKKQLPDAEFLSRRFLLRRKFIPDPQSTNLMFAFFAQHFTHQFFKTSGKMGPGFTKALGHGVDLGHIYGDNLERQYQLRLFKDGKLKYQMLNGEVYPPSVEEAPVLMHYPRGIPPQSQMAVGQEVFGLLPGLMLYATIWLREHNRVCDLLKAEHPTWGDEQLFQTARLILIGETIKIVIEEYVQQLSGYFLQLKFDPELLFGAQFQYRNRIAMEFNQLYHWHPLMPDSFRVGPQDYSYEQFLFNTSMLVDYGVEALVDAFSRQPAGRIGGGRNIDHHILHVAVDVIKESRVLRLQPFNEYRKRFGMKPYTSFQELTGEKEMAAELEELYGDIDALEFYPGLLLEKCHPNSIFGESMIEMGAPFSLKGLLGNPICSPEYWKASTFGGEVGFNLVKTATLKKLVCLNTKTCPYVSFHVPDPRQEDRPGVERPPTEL
test-name: In vitro COX-1 inhibition, colorimetric ovine COX-1/COX-2 inhibitor screening assay kit
Assay type: biochemical
setup-conditions: means of three determinations, read at 590 nm; read-out: IC 50 (µM) COX-1
Consider the following compounds; for each one, report its IC50.
API: value field is a number in µM; no unit string.

query: Please supply the value of reported IC50 for the item `N#Cc1c(-c2cccs2)cc(-c2cccnc2)oc1=O`
result: 4.95

query: Please supply the value of reported IC50 for the item `S=c1nc(-c2cccnc2)cc(-c2cccs2)[nH]1`
result: 4.02

query: Please supply the value of reported IC50 for the item `NNc1nc(-c2cccnc2)cc(-c2cccs2)n1`
result: 4.6

query: Please supply the value of reported IC50 for the item `O=C(/C=C/c1cccs1)c1cccnc1`
result: 3.7

====

Consider the following compounds; for each one, report its melting point.

query: Please supply the value of reported melting point for the item `O=C(/C=C/c1cccs1)c1cccnc1`
result: 256 to 258 °C

query: Please supply the value of reported melting point for the item `S=c1nc(-c2cccnc2)cc(-c2cccs2)[nH]1`
result: 220 to 225 °C

query: Please supply the value of reported melting point for the item `Cc1cc(=O)oc2c1c(C)nn2-c1nc(-c2cccnc2)cc(-c2cccs2)n1`
result: 190 to 192 °C

query: Please supply the value of reported melting point for the item `NNc1nc(-c2cccnc2)cc(-c2cccs2)n1`
result: 180 to 182 °C

query: Please supply the value of reported melting point for the item `CC1=NN(c2nc(-c3cccnc3)cc(-c3cccs3)n2)C(=O)C1`
result: 225 to 227 °C

query: Please supply the value of reported melting point for the item `N#Cc1c(-c2cccs2)cc(-c2cccnc2)oc1=O`
result: 210 to 212 °C
